So I've got a bunch of compounds here, and I need their viability at 1 µM values.
System: Jurkat
test summary: Cytotoxicity against human Jurkat cells assessed as cell viability at 1 uM after 24 hrs by MTT assay relative to control
Format: functional
conditions: read-out: Activity
One number for each entry, in %.

Some compounds with known viability at 1 µM results, for comparison:
# compound smiles, result value
rows = [
    ("COc1ccc(N2CCn3c2nnc(C(=O)NN)c3=O)cc1", 97),
    ("CCOC(=O)c1nnc2n(c1=O)CCN2c1cccc(Cl)c1", 114),
    ("NNC(=O)c1nnc2n(c1=O)CCN2c1cccc(Cl)c1", 100),
    ("CCOC(=O)c1nnc2n(c1=O)CCN2c1ccc(Cl)c(Cl)c1", 91),
    ("CCOC(=O)c1nnc2n(c1=O)CCN2c1ccc(C)cc1", 83),
]

Report viability at 1 µM for every entry below.
1. CCOC(=O)c1nnc2n(c1=O)CCN2c1ccc(OC)cc1
2. CCOC(=O)c1nnc2n(c1=O)CCN2c1ccccc1
3. NNC(=O)c1nnc2n(c1=O)CCN2c1ccccc1
4. Cc1ccc(N2CCn3c2nnc(C(=O)NN)c3=O)cc1

1: 118; 2: 82; 3: 89; 4: 93
